A collection of compounds and their measured pEC50
test system: Human alphaherpesvirus 2; type: functional, cell-based; settings: Human alphaherpesvirus 2, G, HEL
pEC50: −log10 of the molar value.

The following compounds have reported results that may help.
compound: CSc1nc(NCCCCNc2ccnc3cc(Cl)ccc23)c(C#N)c(-c2ccc([N+](=O)[O-])cc2)n1
pEC50: < 6.10
//
compound: CSc1nc(-c2ccccc2)c(C#N)c(N2CCN(c3ccnc4cc(Cl)ccc34)CC2)n1
pEC50: < 4.00

Now turn to the next compound.
response.value for "COc1ccc(-c2nc(SC)nc(NCCCCNc3ccnc4cc(Cl)ccc34)c2C#N)cc1OC" (field: pEC50) = < 4.00
